Listing: TGI of selected molecules
# Test system: HT29 colon
# Experiment: NCI tumour cell line growth inhibition, 48 h
Endpoint Label: TGI

# Molecule, Endpoint Label, Result
measured = [
    ("Cc1nc2sccn2c1C(=O)N/N=C1\\SCC(=O)N1C", "TGI", "> 100 µM"),
    ("CCOc1ccc2nc(NC(=O)C(=O)C(C#N)CC(C)(C)C=O)sc2c1 (stereo unspecified)", "TGI", "> 100 µM"),
    ("CC1(O)CCC(C(C)(C)O)CC1 (stereo unspecified)", "TGI", "> 100 µM"),
    ("CC[C@@]1(O)C(=O)OCc2c1cc1n(c2=O)Cc2c-1nc1ccccc1c2Cl", "TGI", "5.62 µM"),
    ("CN/N=C(\\C)c1c(O)cc(C)oc1=O", "TGI", "> 100 µM"),
    ("CSC(Cc1ccc2c(c1)Sc1ccccc1O2)=[N+]1CCOCC1", "TGI", "> 100 µM"),
    ("Nc1ccc(C(=O)NN2C(=O)[C@H](Cl)C2c2ccc(Cl)cc2)cc1 (stereo partly specified)", "TGI", "0.61 µM"),
    ("O=C(O)c1ccccc1Sc1ccccc1[N+](=O)[O-]", "TGI", "> 100 µM"),
    ("CCOC(=O)c1c(SCc2ccccc2)nc2c3ccccc3ccn12", "TGI", "> 100 µM"),
    ("C=CCOC(=O)C[C@H](NC(=O)[C@H](Cc1ccc(O)cc1)NCC(F)(F)F)C(=O)OCC=C", "TGI", "> 100 µM"),
    ("O=C(Nc1ccc([As]=[As]c2ccc(NC(=O)c3ccccc3)cc2)cc1)c1ccccc1 (stereo unspecified)", "TGI", "3.44 µM"),
]

====

# Tested on: KM12 colon
# Experiment: NCI tumour cell line growth inhibition, 48 h

# Molecule, TGI
measured = [
    ("COC(=O)c1cc(C)ccc1/C=C1\\Cc2cccc(C)c2C1=O", "> 100 µM"),
    ("O=C(Nc1cccc(Cl)c1)Nc1nccs1", "37.5 µM"),
    ("CC1(O)CCC(C(C)(C)O)CC1 (stereo unspecified)", "> 100 µM"),
    ("CC(CC(=O)O)(CC(=O)O)c1ccccc1", "> 100 µM"),
    ("CC(=N\\O)/C(C)=N/O.CC(=N\\O)/C(C)=N/O.CC(=N\\O)/C(C)=N/O.CC(=N\\O)/C(C)=N/O.[CH3-].[CH3-].[Co].[Co]", "> 100 µM"),
    ("CCCN(CCC)c1ccc(CO)c(Cl)c1", "> 100 µM"),
]

====

# Tested on: SW-620 colon
# Experiment: NCI tumour cell line growth inhibition, 48 h
Endpoint Label: TGI

# Molecule, Test Target, Endpoint Label, Result
records = [
    ("C[CH2][Pb]([CH2]C)([CH2]C)[O]C(=O)COc1ccccc1", "SW-620 colon", "TGI", "2.47 µM"),
    ("CC1=C(C(=O)N[C@@H](CC(C)C)C(=O)O)N2C(=O)[C@@H](NC(=O)[C@@H](N)Cc3ccccc3)[C@H]2SC1", "SW-620 colon", "TGI", "> 100 µM"),
    ("C=CCc1cccc2cc(C(N)=O)c(=N)oc12", "SW-620 colon", "TGI", "> 100 µM"),
    ("COc1ccc(N2CCN(C(=O)c3ccc(C(F)(F)F)nc3Nc3cc(Cl)ccc3C)CC2)cc1", "SW-620 colon", "TGI", "22.4 µM"),
    ("CC(=O)N(O)CCCCCNC(=O)CCC(=O)N(O)CCCCCNC(=O)CCC(=O)N(O)CCCCCN", "SW-620 colon", "TGI", "> 100 µM"),
    ("O=C(Nc1ccccc1)c1cc(S(=O)(=O)n2cc[nH]c2=O)c(S)cc1Cl", "SW-620 colon", "TGI", "> 100 µM"),
    ("ClC1=C(Cl)C(Cl)(Cl)SS1", "SW-620 colon", "TGI", "5.82 µM"),
    ("CSC(Cc1ccc2c(c1)Sc1ccccc1O2)=[N+]1CCOCC1", "SW-620 colon", "TGI", "> 100 µM"),
    ("Cc1cc([N+](=O)[O-])ccc1Sc1c2ccccc2nc2ccccc12", "SW-620 colon", "TGI", "> 100 µM"),
    ("O=[N+]([O-])c1ccc2c(c1)C(=NO)c1cc([N+](=O)[O-])ccc1-2", "SW-620 colon", "TGI", "> 100 µM"),
    ("c1ccc2c3ccn4ccc5c6ccccc6[nH]c5c4c-3nc2c1", "SW-620 colon", "TGI", "0.34 µM"),
    ("COc1nc(Cl)nc(Cl)c1Cl (tested in a mixture with another compound)", "SW-620 colon", "TGI", "20.8 µM"),
    ("Nc1nc(N)c2c(Cl)c(CNc3ccc(C(=O)NC(CC(=O)O)C(=O)O)cc3)ccc2n1 (configuration not stated)", "SW-620 colon", "TGI", "> 100 µM"),
    ("CCOP(=O)(OCC)/C(C#N)=C\\c1ccc(OC(C)=O)cc1", "SW-620 colon", "TGI", "> 100 µM"),
    ("[N-]=[N+]=NC1C2CC3C4CC5CC3[C@H](C2)C(C5)C41 (some centres not stated)", "SW-620 colon", "TGI", "> 100 µM"),
    ("O=C(Nc1ccc([As]=[As]c2ccc(NC(=O)c3ccccc3)cc2)cc1)c1ccccc1 (configuration not stated)", "SW-620 colon", "TGI", "0.74 µM"),
    ("COc1ccc2nc3ccccc3c(NCc3ccc(Cl)cc3)c2c1", "SW-620 colon", "TGI", "3.47 µM"),
    ("O=C(c1cccs1)N(C(=S)N1CCN(c2ccccc2)CC1)C1CCCCC1", "SW-620 colon", "TGI", "> 100 µM"),
    ("COc1cc([C@@H]2C3C(=O)c4ccccc4C3[C@@H](c3cc(OC)c(OC)c(OC)c3)C23Cc2ccccc2C3=O)cc(OC)c1OC (some centres not stated)", "SW-620 colon", "TGI", "> 100 µM"),
    ("COC(=O)CCc1ccc2c(c1)[C@H](C(=O)OC)[C@@H](c1ccc(O)cc1)O2", "SW-620 colon", "TGI", "> 100 µM"),
    ("C(=C1c2ccccc2-c2ccccc21)c1ccncc1", "SW-620 colon", "TGI", "17.1 µM"),
    ("COc1ccc2c(c1)[n+]([O-])c(C#N)c(NC(=O)c1cccs1)[n+]2[O-]", "SW-620 colon", "TGI", "> 100 µM"),
    ("C/C=C/[C@@H](C(=O)OC)N1C(=O)c2ccccc2[C@H]1O", "SW-620 colon", "TGI", "> 100 µM"),
    ("CC(=O)c1cc(I)c(O)c2ncccc12", "SW-620 colon", "TGI", "> 10 µM"),
    ("CC1(C)CC[C@]2(C(N)=O)CC[C@]3(C)C(=CC[C@@H]4[C@@]5(C)C/C(=C/c6cccnc6)C(=O)C(C)(C)[C@@H]5CC[C@]43C)[C@@H]2C1", "SW-620 colon", "TGI", "> 100 µM"),
    ("CN1c2ccccc2NC(CC(=O)O)C2CC=CN21 (configuration not stated)", "SW-620 colon", "TGI", "> 100 µM"),
    ("COc1cc2c(cc1OCc1ccccc1)N=CC1C[C@@H](O)CN1C2=O (some centres not stated)", "SW-620 colon", "TGI", "31.3 µM"),
    ("C[n+]1c2ccccc2c(Nc2ccc(N3CCCCC3)cc2)c2[nH]c3ccccc3c21", "SW-620 colon", "TGI", "0.726 µM"),
    ("C=C1C(=O)O[C@H]2[C@H]1CC/C(COC(=O)CCCC(=O)OC/C1=C/CC[C@@]3(C)O[C@H]3[C@H]3OC(=O)C(=C)[C@@H]3CC1)=C\\CC[C@@]1(C)O[C@@H]21", "SW-620 colon", "TGI", "2.04 µM"),
    ("COc1ccc(OC)c2[nH]c(Sc3c([N+](=O)[O-])ncn3C)nc12", "SW-620 colon", "TGI", "> 100 µM"),
    ("NC1=NS(=O)(=O)Nc2nc(-c3ccc(Cl)cc3)[nH]c21", "SW-620 colon", "TGI", "> 100 µM"),
    ("NC1C(O)C(O)C(CO)OC1n1cc(F)c(=O)[nH]c1=O (configuration not stated)", "SW-620 colon", "TGI", "> 100 µM"),
]

Entry source: PubChem BioAssay (NCI)
